Values compiled from PubChem BioAssay AID463074.

Test system: HMLE_sh_eGFP viability, CellTiter-Glo luminescence, 72 h
assayInfo: cytotoxicity in HMLE control line with eGFP shRNA, dose response, counter-screen for HMLE_sh_ECad selective toxicity project, cell-based, HMLE_sh_eGFP, luminescence (AID 463074);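 also: counterscreen control line to flag general toxicity for the HMLE_sh_ECad screen; potency for loss of viability as luminescence drops below DMSO wells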
readoutKind: AC50

molecule: COc1ccc(C)cc1NC(=O)CSc1nnc(COc2ccc(Cl)cc2)n1Cc1ccco1
AC50: 8.28 µM

Request: Sample `Cc1ccc(-c2csc3ncnc(NS(=O)(=O)c4ccc(Cl)cc4)c23)cc1` — what was its AC50?
Result: 11.6 µM

Request: Sample `O=C(Cn1ncc(Cl)c(Cl)c1=O)NCC1CCCCC1` — what was its AC50?
Result: 5.74 µM

Request: Sample `Cc1cc(/C=C2\SC(=S)N(Cc3ccco3)C2=O)c(C)n1-c1ccccc1` — what was its AC50?
Result: 2.92 µM

Request: Sample CCCCCc1cc(=O)oc2c(C(CCN3CCCC(C)C3)c3ccc(OC)cc3)c(OC)cc(OC)c12 (configuration not stated) — what was its AC50?
Result: 5.33 µM

Request: Sample `Cc1cc(Nc2nc(Cl)c(Cl)cc2Cl)n(-c2ccccc2)n1` — what was its AC50?
Result: 11.3 µM

Request: Sample `O=[N+]([O-])/C=C/c1cn(Cc2ccc(F)cc2)c2ccccc12` — what was its AC50?
Result: 6.86 µM

Request: Sample `Cc1nc(Nc2ccc(Cl)cc2Cl)sc1C(=O)Nc1ccccc1` — what was its AC50?
Result: 11.5 µM

Request: Sample CC1CC1C(=O)N1CCN(S(=O)(=O)c2cc(C(F)(F)F)cc(C(F)(F)F)c2)CC1 (configuration not stated) — what was its AC50?
Result: 6.27 µM

Request: Sample `CCOC(=O)/C(=N/Nc1ccccc1)c1csc(Nc2ccccc2)n1` — what was its AC50?
Result: 3.69 µM

Request: Sample `Cc1cc(N=Nc2ccc3ccccc3c2)ccc1O` — what was its AC50?
Result: 6.83 µM

====

Tested on: HMLE_sh_eGFP viability, CellTiter-Glo luminescence, 72 h
assayInfo: cytotoxicity in HMLE control line with eGFP shRNA, dose response, counter-screen for HMLE_sh_ECad selective toxicity project, cell-based, HMLE_sh_eGFP, luminescence (AID 463074);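 also: counterscreen control line to flag general toxicity for the HMLE_sh_ECad screen; potency for loss of viability as luminescence drops below DMSO wells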
Readings of AC50 for the listed molecules

molecule: N#C/C(=C\c1c[nH]c2ccc(Br)cc12)c1ccccn1
endpointResult: 10.3 µM

Request: Sample `CCCCCCSc1ccc([C@H]2N[C@@](C)(C(=O)OC)[C@H]3C(=O)N(CC)C(=O)[C@@H]23)cc1` — what was its AC50?
Result: 19.8 µM

Request: Sample `CCCCCNCC(=O)Nc1cccc(C(=O)Nc2cccc(C(F)(F)F)c2)c1` — what was its AC50?
Result: 13.2 µM

Request: Sample N#CC1=C(SCC(=O)c2ccc(Cl)cc2)NC2=C(C(=O)CCC2)C1c1ccco1 (stereo not given) — what was its AC50?
Result: 3.57 µM

Request: Sample `COc1ccc(/C=C/C(=O)c2ccc([N+](=O)[O-])o2)cc1OC` — what was its AC50?
Result: 2.47 µM

====

System: HMLE_sh_eGFP viability, CellTiter-Glo luminescence, 72 h
assayInfo: cytotoxicity in HMLE control line with eGFP shRNA, dose response, counter-screen for HMLE_sh_ECad selective toxicity project, cell-based, HMLE_sh_eGFP, luminescence (AID 463074);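 also: counterscreen control line to flag general toxicity for the HMLE_sh_ECad screen; potency for loss of viability as luminescence drops below DMSO wells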;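 active = AC50 no more than tenfold above the top dose tested, or full inhibition at every dose with a flat fit (cut at about 19 µM in these data); inconclusive = flat curve fit with inhibition between 30% and 70%, or poor fit; inactive = AC50 more than tenfold above the top dose tested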
Outcomes you can answer with include only these: 1.0 = active, 0.0 = inactive

These solved cases illustrate the format of a correct answer.
compound: CC1(C)CC[C@]2(C(=O)O)CC[C@]3(C)C(=CC[C@@H]4[C@@]5(C)CC[C@H](O[C@@H]6O[C@H](C(=O)O)[C@@H](O)[C@H](O[C@@H]7OC[C@H](O)[C@H](O)[C@H]7O)[C@H]6O)C(C)(C)[C@@H]5CC[C@]43C)[C@@H]2C1
qualitativeLabel: 1.0

compound: COc1ccc(-c2cccc([C@H]3[C@@H]4C=CCC[C@@]4(C)C(=O)N3Cc3ccccc3)c2)cc1
qualitativeLabel: 1.0

Field: next compound
Request: Field: outcome | Entry: `CC1=CC(C)(C)N(S(=O)(=O)c2ccc(F)cc2)c2ccc(C)cc21`
Result: 1.0
